- test-name: rat acute oral toxicity
- condition-context: in vivo
Consider the following partition of reported LD50 into named classes: lower range: < 500 mg/kg; middle range: ≥ 500 mg/kg and < 2000 mg/kg; upper range: ≥ 2000 mg/kg

Here's what some known entries look like.
molecule | classification
O=C(Cl)c1ccc(Cl)cc1 | upper range
CCOP(=S)(NC(C)C)Oc1ccccc1C(=O)OC(C)C (centres undefined) | lower range
CCCCCCCCCCCCN(C)C | middle range

### Prompt Please let me know in which category the item CCCCCCCCCCCCCCN(C)C belongs.
### Response middle range

### Prompt Please let me know in which category the item CCCCCCCCCCCCOS(=O)(=O)O belongs.
### Response middle range

### Prompt Please let me know in which category the item CCCC(C)=O belongs.
### Response middle range

### Prompt Please let me know in which category the item Cc1ccc(N)cc1C belongs.
### Response middle range

### Prompt Please let me know in which category the item CCOC(=O)C(Cl)C(C)=O (centres undefined) belongs.
### Response lower range

### Prompt Please let me know in which category the item CC(O)C#N (centres undefined) belongs.
### Response lower range

### Prompt Please let me know in which category the item CN(C)C(C)(C)CO belongs.
### Response middle range

### Prompt Please let me know in which category the item CC(CC=O)CC(C)(C)C (centres undefined) belongs.
### Response upper range

### Prompt Please let me know in which category the item O=C(CCl)c1ccccc1 belongs.
### Response lower range

### Prompt Please let me know in which category the item CCC(C)(C#N)/N=N/C(C)(C#N)CC (centres undefined) belongs.
### Response lower range

### Prompt Please let me know in which category the item O=C(O)CF belongs.
### Response lower range

### Prompt Please let me know in which category the item CC1(C)[C@H](C(=O)O[C@@H](C#N)c2cccc(Oc3ccccc3)c2)[C@@H]1C=C(Cl)Cl (single isomer, unassigned) belongs.
### Response lower range

### Prompt Please let me know in which category the item CC1(C)C(C=C(Br)Br)C1C(=O)OC(C#N)c1cccc(Oc2ccccc2)c1 (centres undefined) belongs.
### Response lower range

### Prompt Please let me know in which category the item CC(CCl)OP(=O)(OC(C)CCl)OC(C)CCl (centres undefined) belongs.
### Response middle range

### Prompt Please let me know in which category the item CC(C)(O)C#N belongs.
### Response lower range

### Prompt Please let me know in which category the item CC(=O)OCCc1ccccc1 belongs.
### Response upper range

### Prompt Please let me know in which category the item ClC(Br)Br belongs.
### Response lower range

### Prompt Please let me know in which category the item O=C(Nc1ccc(Cl)c(Cl)c1)Nc1cc(Cl)ccc1Oc1ccc(Cl)cc1S(=O)(=O)O belongs.
### Response lower range

### Prompt Please let me know in which category the item CC(C)OC(=O)Nc1ccccc1 belongs.
### Response middle range

###

- test-name: GHS categories as the set defines them, by LD50: 1 up to 5, 2 up to 50, 3 up to 300, 4 up to 2000, 5 above 2000 mg/kg
- condition-context: rat; in vivo; po
property-name: GHS category
Please give the numeric answer without any surrounding text.

### Prompt # get_value(readout='GHS category', item= O=C(O)Cc1ccc(Cl)cc1Cl )
### Response 5

###

GHS category by entry:
- test-name: GHS categories as the set defines them, by LD50: 1 up to 5, 2 up to 50, 3 up to 300, 4 up to 2000, 5 above 2000 mg/kg
- condition-context: rat; in vivo; po
Please give the numeric answer without any surrounding text.

Some solved cases for reference:
compound | GHS category
CNC(=O)Oc1cc(C)cc(C)c1C | 3
CCCCCCOC(=O)C(C)C | 5
CCC(C)(C)NC(=O)c1cnc2cccc(C)n2c1=O | 3
CNC(=O)c1sc(-c2ccc(OC)cc2)nc1C | 5
O=C(OCCOCCO)c1cc(O)ccc1Nc1cccc(C(F)(F)F)c1 | 4

### Prompt # get_value(readout='GHS category', item= NC(=O)c1ccc(N)cc1 )
### Response 5

### Prompt # get_value(readout='GHS category', item= Cc1nc(N)sc1C(=O)N(C(C)C)C(C)C )
### Response 4

### Prompt # get_value(readout='GHS category', item= CN1C(=O)C(C)(C)Oc2cc(C(=O)C=Cc3ccc(O)cc3)ccc21 )
### Response 5

### Prompt # get_value(readout='GHS category', item= O=C(Nc1cc(Cl)c(NC(=O)c2cc3ccccc3c(N=Nc3cc(Cl)ccc3Cl)c2O)cc1Cl)c1cc2ccccc2c(N=Nc2cc(Cl)ccc2Cl)c1O )
### Response 5

### Prompt # get_value(readout='GHS category', item= CC12CCC3c4ccc(OC(=O)c5ccccc5)cc4CCC3C1CCC2OC(=O)COC(=O)CCCc1ccc(N(CCCl)CCCl)cc1 (stereo unspecified) )
### Response 5

### Prompt # get_value(readout='GHS category', item= CC(C)CC(C)c1ccccc1N (stereo unspecified) )
### Response 5

###

- test-name: GHS categories as the set defines them, by LD50: 1 up to 5, 2 up to 50, 3 up to 300, 4 up to 2000, 5 above 2000 mg/kg
- condition-context: rat; in vivo; po
property-name: GHS category
Please give the numeric answer without any surrounding text.

Some solved cases for reference:
compound | GHS category
CN(CCCN1c2ccccc2CCc2ccccc21)CC(=O)c1ccc(Cl)cc1 | 4
CCCC(=O)O[C@]1(C(=O)COC(C)=O)CC[C@H]2[C@@H]3C[C@H](F)C4=CC(=O)C=C[C@]4(C)[C@@]3(F)[C@@H](O)C[C@@]21C | 5
CCCCC(CC)C(=O)OC (centres undefined) | 5
Cc1cccc(C)c1OP(=O)(Oc1cccc(OP(=O)(Oc2c(C)cccc2C)Oc2c(C)cccc2C)c1)Oc1c(C)cccc1C | 5
CC=CCCC1CCCC(=O)O1 (centres undefined) | 5

### Prompt # get_value(readout='GHS category', item= COC(=O)c1ccc(OC)cc1 )
### Response 5

### Prompt # get_value(readout='GHS category', item= CC1(C)CC2(CC(C)(C)N1)OC1(CCCCCCCCCCC1)NC2=O )
### Response 5

### Prompt # get_value(readout='GHS category', item= CCCCC(CC)COC(=O)c1ccc(Nc2nc(Nc3ccc(C(=O)NC(C)(C)C)cc3)nc(Nc3ccc(C(=O)OCC(CC)CCCC)cc3)n2)cc1 (centres undefined) )
### Response 5

### Prompt # get_value(readout='GHS category', item= CO[C@@]1(NC(=O)C2SC(=C(C(N)=O)C(=O)O)S2)C(=O)N2C(C(=O)O)=C(CSc3nnnn3C)CS[C@@H]21 (some centres undefined) )
### Response 5

###

GHS category by entry:
- test-name: GHS categories as the set defines them, by LD50: 1 up to 5, 2 up to 50, 3 up to 300, 4 up to 2000, 5 above 2000 mg/kg
- condition-context: rat; in vivo; po
Please give the numeric answer without any surrounding text.

Some solved cases for reference:
compound | GHS category
O=S(=O)(O)c1cc(-n2ncc(-c3ccccc3)n2)ccc1C=Cc1ccc(-n2ncc(-c3ccccc3)n2)cc1S(=O)(=O)O | 5
O=C(C(Cl)Cl)N(CCO)Cc1ccc(Oc2ccc([N+](=O)[O-])cc2)cc1 | 5
O=C(O)COc1nn(-c2cccc(C(F)(F)F)c2)c2ncccc12 | 4
CC1CC(OC(=O)c2ccccc2O)CC(C)(C)C1 (centres undefined) | 5
CC/C(=C(/CC)c1ccc(O)cc1)c1ccc(O)cc1 | 5
CC(C)(c1ccccc1)C(C)(C)c1ccccc1 | 5
CC(C)Oc1cccc(NC(=O)c2ccccc2C(F)(F)F)c1 | 5
CC(C)C1OCCN1CCOC(=O)NCCCCCCNC(=O)OCCN1CCOC1C(C)C (centres undefined) | 5
CCCCCCC(=O)OC1CCC2C3CCC4=CC(=O)CCC4(C)C3CCC12C (centres undefined) | 4
COc1ccccc1C=NNC(N)=S | 5

### Prompt # get_value(readout='GHS category', item= CCC1(CO)COCOC1 )
### Response 5

### Prompt # get_value(readout='GHS category', item= CCCc1c(Cc2ccc(-c3ccccc3-c3nn[nH]n3)cc2)cnc2ncnn12 )
### Response 4

### Prompt # get_value(readout='GHS category', item= Brc1c(Br)c(Br)c(OCCOc2c(Br)c(Br)c(Br)c(Br)c2Br)c(Br)c1Br )
### Response 5

###

GHS category by entry:
- test-name: GHS categories as the set defines them, by LD50: 1 up to 5, 2 up to 50, 3 up to 300, 4 up to 2000, 5 above 2000 mg/kg
- condition-context: rat; in vivo; po
- Source text: […]The data set underlying the modeling effort for this project was initially compiled by NICEATM and U.S. EPA’s CCTE. Briefly, LD50 data were collected from rat acute oral systemic toxicity tests, including limit tests, ranges/confidence intervals, and discrete LD50 values. The full data set included 21,200 LD50 entries for 15,688 substances. […]
Please give the numeric answer without any surrounding text.

molecule | GHS category
C=C1CC[C@H](O)C/C1=C/C=C1\CCC[C@]2(C)[C@@H]([C@H](C)CC[C@@H](O)C(C)(C)O)CC[C@@H]12 | 2
CCCCCC(=O)OC | 5
COc1ccc(C(=O)Nc2ccc(C(N)=O)cc2)cc1[N+](=O)[O-] | 5
CO[C@H]1C[C@H](O[C@H]2[C@H](C)[C@@H](O[C@@H]3O[C@H](C)C[C@H](N(C)C)[C@H]3O)[C@H](C)C[C@@]3(CO3)C(=O)[C@H](C)[C@@H](O)[C@@H](C)[C@@H](C)OC(=O)[C@@H]2C)O[C@@H](C)[C@@H]1O | 5
C(=C\c1ccccc1)/CN1CCN(C(c2ccccc2)c2ccccc2)CC1 | 5
CC(C)C1C(=O)N(c2ccccc2)N(c2ccc(O)cc2)C1=O (centres undefined) | 4
N#C[Se]Cc1ccc(C[Se]C#N)cc1 | 4
CCC(C(=O)Oc1cc(C)ccc1C(C)C)c1ccc(-c2ccccc2)cc1 (centres undefined) | 5

In the following, a different molecule is considered.
### Prompt # get_value(readout='GHS category', item= Cc1ccc(C(=O)NS(=O)(=O)c2ccc(N)cc2)cc1C )
### Response 5

Ref: the CATMoS acute toxicity set (Mansouri et al. 2021)
